system: CD8+ T cells; test: IFN-γ ELISPOTs, activation of CD8+ T cell immune response; type: cell-based, human; conditions: IFN-γ ELISPOTs
Outcome measure: Conclusion (immunogenicity)

INSERT INTO measurements (seq_string, outcome_measure, meas_value) VALUES
  ('KMMGIVYKL', 'Conclusion (immunogenicity)', 'immunogenic'),
  ('KLMGIVYKL', 'Conclusion (immunogenicity)', 'immunogenic'),
  ('KLMGIVYKV [9-amino-acid mutated TWIST Neighbor protein peptide (N136Y)]', 'Conclusion (immunogenicity)', 'immunogenic'),
  ('KMMGIVYKV', 'Conclusion (immunogenicity)', 'immunogenic');

----------
Exercise: for every item that follows, state its recorded Number of spots in the mutated polypeptide group.
tested on: CD8+ T cells; assay: IFN-γ ELISPOTs, activation of CD8+ T cell immune response; format: cell-based, human; conditions: CD8+ T cells primed with DCs loaded with the polypeptide; T2 cells loaded with mutated polypeptide; 20 hours
Numbers only.

INSERT INTO assay_data (seq_string, meas_value) VALUES
  ('KMMGIVYKL', 328),
  ('KMMGIVYKV', 323),
  ('KLMGIVYKL', 335);

Any idea what Number of spots in the mutated polypeptide group was measured for KLMGIVYKV [9-amino-acid mutated TWIST Neighbor protein peptide (N136Y)] ?
316
